Each item that follows carries a reported pKi.
Target: DLK kinase (N-terminally GST-tagged DLK, catalytic domain amino acid 1-520) (Homo sapiens (Human), UniProt Q12852)
Sequence (Q12852 1-520): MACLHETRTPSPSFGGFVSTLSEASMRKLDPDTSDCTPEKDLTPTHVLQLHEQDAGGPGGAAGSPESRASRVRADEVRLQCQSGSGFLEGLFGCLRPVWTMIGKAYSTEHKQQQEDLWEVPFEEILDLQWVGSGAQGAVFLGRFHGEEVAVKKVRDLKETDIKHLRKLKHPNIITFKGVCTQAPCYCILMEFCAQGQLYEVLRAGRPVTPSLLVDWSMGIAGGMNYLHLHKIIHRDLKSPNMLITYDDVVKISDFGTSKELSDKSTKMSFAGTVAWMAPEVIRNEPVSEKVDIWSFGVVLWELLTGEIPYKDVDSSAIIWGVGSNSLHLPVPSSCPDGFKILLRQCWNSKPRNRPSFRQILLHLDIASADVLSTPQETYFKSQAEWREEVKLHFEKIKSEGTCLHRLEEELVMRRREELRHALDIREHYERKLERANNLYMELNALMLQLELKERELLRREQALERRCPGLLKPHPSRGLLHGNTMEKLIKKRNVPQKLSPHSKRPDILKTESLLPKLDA
Test: DLK TR-FRET assay
Conditions: 30 μM ATP, MKK4 K131M substrate, read-out: DLK HTRF (Ki)
pKi: −log10 of the molar value.
readout-kind: pKi

O=C(C(F)F)N1CCC(c2cc(Nc3cc(C(F)(F)F)ccn3)nc(N3CC4CCC(C3)O4)n2)C1 (stereo not shown) : 6.76
CN1CCC(c2cc(Nc3cc(C(F)(F)F)ccn3)nc(N3CCC(F)(F)C3)n2)CC1 : 8.35
COc1cc(C)ccc1C(=O)N1CCCC(c2cc(Nc3cc(C)ccn3)nc(N3CCC(F)(F)C3)n2)C1 (stereo not shown) : 9.30
CN1CCCC(c2cc(Nc3cc(C(F)(F)F)ccn3)nc(N3CC(N4CCOCC4)C3)n2)C1 (stereo not shown) : 6.20
Cc1ccnc(Nc2cc(C3CCCN(Cc4ccccn4)C3)nc(C)n2)c1 (stereo not shown) : 6.53
CS(=O)(=O)N1CCCC(c2cc(Nc3cc(C(F)(F)F)ccn3)nc(C3CCOC3)n2)C1 (stereo not shown) : 6.91
CC(=O)N1CCCC(c2cc(Nc3cc(C)ccn3)nc(-c3ccccc3)n2)C1 (stereo not shown) : 7.51
CC1CCCN1c1nc(Nc2cc(C(F)(F)F)ccn2)cc(C2CCNCC2)n1 (stereo not shown) : 9.13
C[C@@H]1CCCN1c1nc(Nc2cc(C(F)(F)F)ccn2)cc(C2CCNCC2)n1 : 9.07
